Quick reference: IC50 of the listed items.
Target: GABA-A receptor; anion channel
Experiment: Displacement of [3H]diazepam binding in rat brain membranes
Give the quantity in nM, number only.

Some molecules with known IC50 results, for comparison:
| molecule | IC50 / nM |
| --- | --- |
| Oc1ccc(C2=NCc3cncnc3-c3ccc(Cl)cc32)c(Cl)c1 | 100 |
| OC1N=C(c2ccccc2Cl)c2cc(Cl)ccc2-c2ncncc21 (centres undefined) | 6.4 |
| [O-][n+]1cnc2c(c1)CN=C(c1ccccc1Cl)c1cc(Cl)ccc1-2 | 1.25 |

Proceed to the following item.
## Task Fill in: IC50 of `Clc1ccc2c(c1)C(c1ccccc1Cl)=NCc1cncnc1-2` is ___
## Result 1.7

The reported numbers originate from ChEMBL document CHEMBL1122391.
